SUBJECT_OF_TEST: UniProt Q14973
Sequence (Q14973 1-349): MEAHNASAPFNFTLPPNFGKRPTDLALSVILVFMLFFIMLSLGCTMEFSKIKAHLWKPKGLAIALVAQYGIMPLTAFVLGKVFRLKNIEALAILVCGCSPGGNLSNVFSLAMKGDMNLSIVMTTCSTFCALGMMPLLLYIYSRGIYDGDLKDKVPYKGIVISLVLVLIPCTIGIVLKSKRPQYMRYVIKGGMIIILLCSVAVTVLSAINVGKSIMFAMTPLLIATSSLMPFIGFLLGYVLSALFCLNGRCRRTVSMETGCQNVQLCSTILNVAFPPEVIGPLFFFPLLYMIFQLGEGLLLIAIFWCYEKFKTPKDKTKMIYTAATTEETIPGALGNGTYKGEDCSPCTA
TEST_DESCRIPTION: Screening fluorescent competitive Myrcludex B-FITC binding assay (96-well, 10 µM drug)
SETUP_CONDITIONS: screen, 10 µM drug, Myrcludex B-FITC binding
Counter-ions that a name gives are not always drawn.
Mark Condition met for B-score binding assay under 0.009, Condition not met if at or over.

Lab note: B-score binding assay threshold 0.009. Does this molecule come in strictly under it? CCC1=C(C)CN(C(=O)NCCc2ccc(S(=O)(=O)NC(=O)N[C@H]3CC[C@H](C)CC3)cc2)C1=O [Glimepiride]
Condition not met

Given the entry Cc1cc(=O)oc2cc(O)ccc12 , would its reported B-score binding assay be below 0.009?
Condition not met

Please check: B-score binding assay for CCOC1O[C@H]([C@@H](COCc2ccccc2)OCc2ccccc2)[C@H](OCc2ccccc2)[C@H]1O (stereo partly drawn) [Tribenoside] , strictly under 0.009 or not?
Condition met

In plain terms, does O=C(O)CN(CCN(CC(=O)O)CC(=O)O)CCN(CC(=O)O)CC(=O)O come in under 0.009 for B-score binding assay?
Condition met

Is the reported B-score binding assay for CC=CC1=C(C(=O)O)N2C(=O)[C@@H](NC(=O)[C@H](N)c3ccc(O)cc3)[C@H]2SC1 strictly below 0.009?
Condition met

Decide: B-score binding assay of Cl.Clc1ccc(Cn2c(CN3CCCC3)nc3ccccc32)cc1 [Clemizole hydrochloride] strictly below 0.009?
Condition met

Does the reported B-score binding assay of CN1C(=O)CC(c2ccccc2)C1=O (stereo not drawn) [Phensuximide] stay below 0.009?
Condition met

A record lists NCC1(CC(=O)O)CCCCC1 . Is its B-score binding assay below 0.009?
Condition not met

Is the reported B-score binding assay for Cc1c(N(C)C)c(=O)n(-c2ccccc2)n1C strictly below 0.009?
Condition met

Find out if reported B-score binding assay for O=C1O[C@H]([C@@H](O)CO)C(O)=C1O is less than 0.009
Condition not met

Item CC1=NS(=O)(=O)c2cc(Cl)ccc2N1 [Diazoxide] : B-score binding assay beneath 0.009, strictly?
Condition met

Decide: B-score binding assay of C[N+]1(C)[C@@H]2CC[C@H]1C[C@@H](OC(=O)C(CO)c1ccccc1)C2 (stereo partly drawn) [Methylatropine nitrate] strictly below 0.009?
Condition met

is_below(B-score binding assay, 0.009) for COc1ccc(CN2CCNCC2)c(OC)c1OC [Trimetazidine dihydrochloride] ?
Condition met

Input N[C@@H](C(=O)N[C@@H]1C(=O)N2C(C(=O)O)=C(Cl)CS[C@H]12)c1ccccc1.O [Cefaclor hydrate] ; condition: B-score binding assay strictly below 0.009. Does it hold?
Condition met

Problem: For the molecule CN(C)CCC(c1ccccc1)c1ccccn1 (stereo not drawn) [Pheniramine maleate] , is B-score binding assay under 0.009?
Condition met

Is B-score binding assay of COc1ccc2[nH]c([S+]([O-])Cc3ncc(C)c(OC)c3C)nc2c1 (stereo not drawn) strictly below 0.009?
Condition met

Answer whether the molecule C[C@H](N)[C@H](O)c1ccc(O)c(O)c1 has B-score binding assay strictly less than 0.009
Condition met

Does COc1ccc(CN(CCN(C)C)c2ccccn2)cc1 [Pyrilamine maleate] have B-score binding assay strictly under 0.009?
Condition not met

Answer whether the molecule O=C(O)COC(=O)Cc1ccccc1Nc1c(Cl)cccc1Cl has B-score binding assay strictly less than 0.009
Condition met

Quick check: B-score binding assay of COc1cc([S+](C)[O-])ccc1-c1nc2ncccc2[nH]1 (stereo not drawn) under 0.009?
Condition met

Just for reference, paper PMC5681660 is where these values come from.
